tested on: Diamond Back Moth (Plutella xylostella); assay: Test Example 1: insecticidal effect on diamond back moth, immersion of Chinese cabbage seedling with eggs; type: in vivo; conditions: 50 ppm, seedling with eggs immersed about 30 seconds, 25° C., six days after the immersion
metricName: Test Example 1 (insecticidal effect, mortality criterion)

Cc1nc(C(C(F)(F)F)C(F)(F)F)ccc1NC(=O)c1cccc(I)c1C(=O)NC(C)COC(=O)NCc1ccccc1 (stereo not drawn); A (Mortality 100%)
CCc1cc(CC(F)(F)F)ccc1NC(=O)c1cccc(I)c1C(=O)NC(C)(C)CSC; A (Mortality 100%)
CSCC(C)(C)NC(=O)c1c(C(=O)Nc2ccc(C(C(F)(F)F)C(F)(F)F)nc2C)cccc1[N+](=O)[O-]; A (Mortality 100%)
